Value source: paper PMC7961048

# target_or_test_system: 14-3-3β (Homo sapiens, UniProt P31946)
# Construct: cDNAs encoding other full-length 14-3-3 isoforms β, τ, η, and σ were obtained as codon-optimized
# Sequence (P31946 whole entry, canonical isoform): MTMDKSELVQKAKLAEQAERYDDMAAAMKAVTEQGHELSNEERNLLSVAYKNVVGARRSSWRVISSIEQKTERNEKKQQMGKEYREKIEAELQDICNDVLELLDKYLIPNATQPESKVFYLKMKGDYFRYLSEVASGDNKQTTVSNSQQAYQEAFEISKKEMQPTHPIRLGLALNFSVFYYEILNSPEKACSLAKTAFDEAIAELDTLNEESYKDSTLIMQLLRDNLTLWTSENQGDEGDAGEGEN
# measurement_notes: biochemical
pKd: −log10 of the molar value. Starred links: 1 amine or outer side, 2 acyl side, 3 side chain; linkers in the order of their positions; H or OH if unused. Non-standard residues stand in square brackets, D forms with d. Residues, ends and D or L forms follow the SMILES beside them. *: point of attachment. X1 = O=C(CCCC[C@@H]1SC[C@@H]2NC(=O)N[C@@H]21)NCCCOCCOCCOCCCN*; pT = C[C@@H](OP(=O)(O)O)[C@H](N)C(=O)O; Suc = O=C(CCC(=O)[*:2])[*:1]
parameter_measured: pKd

molecule	target_or_test_system	parameter_measured	qualifier_sign	quantitative_result
CC(C)[C@H](NC(=O)[C@H](CCC(=O)O)NC(=O)[C@@H](NC(=O)[C@H](CCC(=O)O)NC(=O)[C@H](CCCNC(=N)N)NC(=O)[C@H](CCCNC(=N)N)NC(=O)[C@@H](NC(=O)[C@@H]1CCCN1C(=O)[C@H](CCCCN)NC(=O)[C@H](CO)NC(=O)CCC(=O)NCCCOCCOCCOCCCNC(=O)CCCC[C@@H]1SC[C@@H]2NC(=O)N[C@@H]21)[C@@H](C)O)[C@@H](C)OP(=O)(O)O)C(=O)O [pHPV35E6] ({X1-Suc}-SKPTRRE[pT]EV-OH)	14-3-3β (Homo sapiens, UniProt P31946)	pKd	<	3.52
CC(C)[C@H](NC(=O)[C@H](C)NC(=O)[C@@H](NC(=O)[C@H](CCC(=O)O)NC(=O)[C@H](CCCNC(=N)N)NC(=O)[C@H](CCCNC(=N)N)NC(=O)[C@H](CCCNC(=N)N)NC(=O)[C@@H]1CCCN1C(=O)[C@H](CCCCN)NC(=O)[C@H](CO)NC(=O)CCC(=O)NCCCOCCOCCOCCCNC(=O)CCCC[C@@H]1SC[C@@H]2NC(=O)N[C@@H]21)[C@@H](C)OP(=O)(O)O)C(=O)O [pHPV35E6T-6R, E-1A] ({X1-Suc}-SKPRRRE[pT]AV-OH)	14-3-3β (Homo sapiens, UniProt P31946)	pKd	=	5.15
CC(C)C[C@H](NC(=O)[C@H](CCCNC(=N)N)NC(=O)CCC(=O)NCCCOCCOCCOCCCNC(=O)CCCC[C@@H]1SC[C@@H]2NC(=O)N[C@@H]21)C(=O)N[C@@H](CCC(N)=O)C(=O)N[C@@H](CCCNC(=N)N)C(=O)N[C@@H](CCCNC(=N)N)C(=O)N[C@@H](CCCNC(=N)N)C(=O)N[C@@H](CCC(=O)O)C(=O)N[C@H](C(=O)N[C@@H](CCC(N)=O)C(=O)N[C@H](C(=O)O)C(C)C)[C@@H](C)OP(=O)(O)O [pHPV18E6]	14-3-3β (Homo sapiens, UniProt P31946)	pKd	=	4.37

====

# target_or_test_system: 14-3-3γ (Homo sapiens, UniProt P61981)
# Construct: full-length human 14-3-3 constructs with an N-terminal MBP fusion were used; made in house; host or cells: E. coli BL21(DE3)
# Sequence (P61981 whole entry, the tested form may be a part): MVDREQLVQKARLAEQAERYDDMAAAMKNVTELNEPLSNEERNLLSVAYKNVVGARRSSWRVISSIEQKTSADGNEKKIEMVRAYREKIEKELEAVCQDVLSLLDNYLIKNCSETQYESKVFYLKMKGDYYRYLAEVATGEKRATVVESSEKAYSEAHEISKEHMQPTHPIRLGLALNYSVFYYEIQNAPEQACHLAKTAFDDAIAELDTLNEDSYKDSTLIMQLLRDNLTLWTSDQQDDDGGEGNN
# measurement_notes: biochemical
# Format: binding
Starred links: 1 amine or outer side, 2 acyl side, 3 side chain; linkers in the order of their positions; H or OH if unused. Non-standard residues stand in square brackets, D forms with d. Residues, ends and D or L forms follow the SMILES beside them. *: point of attachment. X1 = O=C(CCCC[C@@H]1SC[C@@H]2NC(=O)N[C@@H]21)NCCCOCCOCCOCCCN*; pT = C[C@@H](OP(=O)(O)O)[C@H](N)C(=O)O; Suc = O=C(CCC(=O)[*:2])[*:1]

molecule	Kd (µM)
CC(C)[C@H](NC(=O)[C@H](C)NC(=O)[C@@H](NC(=O)[C@H](CCC(=O)O)NC(=O)[C@H](CCCNC(=N)N)NC(=O)[C@H](CCCNC(=N)N)NC(=O)[C@H](CCCNC(=N)N)NC(=O)[C@@H]1CCCN1C(=O)[C@H](CCCCN)NC(=O)[C@H](CO)NC(=O)CCC(=O)NCCCOCCOCCOCCCNC(=O)CCCC[C@@H]1SC[C@@H]2NC(=O)N[C@@H]21)[C@@H](C)OP(=O)(O)O)C(=O)O [pHPV35E6T-6R, E-1A] ({X1-Suc}-SKPRRRE[pT]AV-OH)	3.3
CC(C)[C@H](NC(=O)[C@H](C)NC(=O)[C@@H](NC(=O)[C@H](CCC(=O)O)NC(=O)[C@H](CCCNC(=N)N)NC(=O)[C@H](CCCNC(=N)N)NC(=O)[C@@H](NC(=O)[C@@H]1CCCN1C(=O)[C@H](CCCCN)NC(=O)[C@H](CO)NC(=O)CCC(=O)NCCCOCCOCCOCCCNC(=O)CCCC[C@@H]1SC[C@@H]2NC(=O)N[C@@H]21)[C@@H](C)O)[C@@H](C)OP(=O)(O)O)C(=O)O [pHPV35E6E-1A] ({X1-Suc}-SKPTRRE[pT]AV-OH)	9.31
CC(C)[C@H](NC(=O)[C@H](CCC(=O)O)NC(=O)[C@@H](NC(=O)[C@H](CCC(=O)O)NC(=O)[C@H](CCCNC(=N)N)NC(=O)[C@H](CCCNC(=N)N)NC(=O)[C@H](CCCNC(=N)N)NC(=O)[C@@H]1CCCN1C(=O)[C@H](CCCCN)NC(=O)[C@H](CO)NC(=O)CCC(=O)NCCCOCCOCCOCCCNC(=O)CCCC[C@@H]1SC[C@@H]2NC(=O)N[C@@H]21)[C@@H](C)OP(=O)(O)O)C(=O)O [pHPV35E6T-6R] ({X1-Suc}-SKPRRRE[pT]EV-OH)	71.2
CC(C)C[C@H](NC(=O)[C@H](CCCNC(=N)N)NC(=O)CCC(=O)NCCCOCCOCCOCCCNC(=O)CCCC[C@@H]1SC[C@@H]2NC(=O)N[C@@H]21)C(=O)N[C@@H](CCC(N)=O)C(=O)N[C@@H](CCCNC(=N)N)C(=O)N[C@@H](CCCNC(=N)N)C(=O)N[C@@H](CCCNC(=N)N)C(=O)N[C@@H](CCC(=O)O)C(=O)N[C@H](C(=O)N[C@@H](CCC(N)=O)C(=O)N[C@H](C(=O)O)C(C)C)[C@@H](C)OP(=O)(O)O	11.1
CC(C)C[C@H](NC(=O)[C@H](CCC(N)=O)NC(=O)[C@@H](NC(=O)[C@H](CCC(=O)O)NC(=O)[C@H](CCCNC(=N)N)NC(=O)[C@H](CCCNC(=N)N)NC(=O)[C@@H](NC(=O)[C@H](CCCNC(=N)N)NC(=O)[C@H](CO)NC(=O)[C@H](CO)NC(=O)CCC(=O)NCCCOCCOCCOCCCNC(=O)CCCC[C@@H]1SC[C@@H]2NC(=O)N[C@@H]21)[C@@H](C)O)[C@@H](C)OP(=O)(O)O)C(=O)O	37.2
